Origin of measurements: patent US9018258B2

Each entry below lists one item and its recorded Emax value.
- assayed_system: GAL4-PPARδ (Homo sapiens)
- Construct: PPARδ (amino acids 138-442); expressed in transfected cells
- Sequence (Q03181 138-441 limits assumed): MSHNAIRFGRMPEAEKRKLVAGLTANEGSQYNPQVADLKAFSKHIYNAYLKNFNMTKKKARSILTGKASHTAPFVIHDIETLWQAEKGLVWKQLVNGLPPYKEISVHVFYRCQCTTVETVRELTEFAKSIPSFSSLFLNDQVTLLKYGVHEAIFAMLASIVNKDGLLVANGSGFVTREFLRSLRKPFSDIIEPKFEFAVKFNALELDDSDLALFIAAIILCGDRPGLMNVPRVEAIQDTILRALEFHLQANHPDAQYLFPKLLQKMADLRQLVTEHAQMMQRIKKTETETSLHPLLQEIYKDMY
- measurement_protocol: Cellular PPAR transactivation assay, GAL4-PPARδ chimera in CHO-K1 cells
- Assay type: cell-based
- measurement_setup: CHO-K1; maximum effect relative to reference compound (Example 73 of EP 1 452 521-A1 = 100%); read-out: PPARδ efficacy
Give your result in % as a bare value.

INSERT INTO assay_data (compound, quantitative_result) VALUES
  ('COc1ccc(CC2(C(=O)O)CC2)cc1CNC(=O)c1ccc(Cl)cc1Cl [Example 11 of EP 1 452 521-A1, reference compound]', 10),
  ('COc1cc([C@@H](C(=O)Nc2cc(CC3(C(=O)O)CC3)ccc2F)[C@@H](C)C(F)(F)F)ccc1Cl [Example 42]', 0),
  ('O=C(Nc1cc(CC2(C(=O)O)CC2)ccc1Cl)C(c1ccc(Cl)cc1)C1CCC(F)(F)C1 (single isomer, unassigned) [Example 73]', 0),
  ('Cc1ccc(CC2(C(=O)O)CC2)cc1NC(=O)[C@H](c1ccc(Cl)cc1)[C@@H](C)C(F)(F)F [Example 33]', 0),
  ('O=C(Nc1cc(CC2(C(=O)O)CC2)ccc1F)[C@H](c1ccc(Cl)cc1)C1CCCC1(F)F (single isomer, unassigned; (+)) [Example 68]', 0);

Please examine the following record next.
Requested read-out: Emax. Entry: [2H]C([2H])([2H])OC(c1ccc(Cl)c(NC(=O)[C@H](c2ccc(Cl)cc2)[C@@H](C)C(F)(F)F)c1)C1(C(=O)O)CC1 (single isomer, unassigned; (+)) [Example 99]
0

---

Quick reference for MEC (minimum effective concentration), sGC-activating activity in the CHO reporter cell among some compounds
- assayed_system: sGC (Rattus norvegicus, UniProt P20595)
- Construct: expressed in transfected cells; host or cells: CHO reporter cell
- Sequence (P19686 whole entry partner): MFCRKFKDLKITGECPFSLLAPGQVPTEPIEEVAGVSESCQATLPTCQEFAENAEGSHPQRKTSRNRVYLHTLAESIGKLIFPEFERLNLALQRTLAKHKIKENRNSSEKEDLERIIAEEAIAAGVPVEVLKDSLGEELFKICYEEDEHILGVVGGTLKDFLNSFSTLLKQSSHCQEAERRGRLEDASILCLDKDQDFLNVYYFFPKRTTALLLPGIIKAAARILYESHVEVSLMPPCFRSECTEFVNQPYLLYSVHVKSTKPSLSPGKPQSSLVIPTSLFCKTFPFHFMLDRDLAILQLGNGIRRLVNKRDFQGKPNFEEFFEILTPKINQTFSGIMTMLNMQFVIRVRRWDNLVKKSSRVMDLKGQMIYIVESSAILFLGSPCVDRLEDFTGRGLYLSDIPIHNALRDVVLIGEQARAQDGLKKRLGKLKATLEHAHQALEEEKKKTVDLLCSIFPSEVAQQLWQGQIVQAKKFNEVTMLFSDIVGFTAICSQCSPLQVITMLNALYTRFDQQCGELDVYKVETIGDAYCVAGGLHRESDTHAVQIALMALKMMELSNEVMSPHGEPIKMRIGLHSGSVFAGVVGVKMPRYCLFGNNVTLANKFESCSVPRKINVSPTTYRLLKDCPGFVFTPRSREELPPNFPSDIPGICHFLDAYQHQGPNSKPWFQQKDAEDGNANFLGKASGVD
- Sequence (P20595 whole entry): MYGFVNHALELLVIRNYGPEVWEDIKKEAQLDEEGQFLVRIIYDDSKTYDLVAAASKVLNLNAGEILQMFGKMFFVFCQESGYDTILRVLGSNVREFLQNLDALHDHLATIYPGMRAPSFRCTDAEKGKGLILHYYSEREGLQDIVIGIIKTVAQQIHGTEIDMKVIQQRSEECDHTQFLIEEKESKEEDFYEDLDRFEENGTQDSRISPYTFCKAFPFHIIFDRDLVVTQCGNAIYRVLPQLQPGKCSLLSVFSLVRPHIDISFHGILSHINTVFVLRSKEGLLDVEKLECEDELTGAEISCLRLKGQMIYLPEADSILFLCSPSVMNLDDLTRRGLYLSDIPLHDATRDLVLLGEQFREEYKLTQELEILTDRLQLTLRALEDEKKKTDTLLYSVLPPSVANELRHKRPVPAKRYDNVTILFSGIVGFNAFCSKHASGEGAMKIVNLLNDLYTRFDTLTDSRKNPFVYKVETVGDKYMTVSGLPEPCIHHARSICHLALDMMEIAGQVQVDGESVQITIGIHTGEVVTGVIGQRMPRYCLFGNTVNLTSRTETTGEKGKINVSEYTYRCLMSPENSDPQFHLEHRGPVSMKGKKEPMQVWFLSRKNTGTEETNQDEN
- measurement_protocol: Action at a recombinant guanylate cyclase reporter cell line (CHO reporter cell)
- Assay type: cell-based
- measurement_setup: CHO reporter cell in vitro
State the answer as a number, implicitly in nM.

INSERT INTO measurements (compound, assayed_system, quantitative_result) VALUES
  ('C[C@H]([C@H](C(=O)Nc1cc(CC2(C(=O)O)CC2)ccc1F)c1ccc(Cl)cc1)C(F)(F)F', 'sGC (Rattus norvegicus, UniProt P20595)', 0.3);

Then there is this compound:
Item under review: CC(C(C(=O)Nc1cc(CC2(C(=O)O)CC2)ccc1Cl)c1ccc(CC(F)(F)F)cc1)C(F)(F)F (stereo not shown) [Example 46] . Reported MEC (minimum effective concentration), sGC-activating activity in the CHO reporter cell?
1

---

- assayed_system: GAL4-PPARγ (Homo sapiens, UniProt P37231)
- Construct: PPARγ (amino acids 203-506); expressed in transfected cells
- Sequence (P37231 203-505 limits assumed): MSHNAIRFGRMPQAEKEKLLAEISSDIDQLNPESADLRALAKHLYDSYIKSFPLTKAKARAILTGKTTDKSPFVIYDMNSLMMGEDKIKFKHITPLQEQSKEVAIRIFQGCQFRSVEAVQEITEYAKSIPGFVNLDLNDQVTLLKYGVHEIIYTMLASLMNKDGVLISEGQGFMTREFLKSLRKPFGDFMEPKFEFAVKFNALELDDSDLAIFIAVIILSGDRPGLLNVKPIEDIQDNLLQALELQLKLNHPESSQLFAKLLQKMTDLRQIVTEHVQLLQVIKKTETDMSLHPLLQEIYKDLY
- measurement_protocol: Cellular PPAR transactivation assay, GAL4-PPARγ chimera in CHO-K1 cells
- Format: cell-based
- measurement_setup: CHO-K1; maximum effect relative to reference compound (Example 73 of EP 1 452 521-A1 = 100%); read-out: PPARγ efficacy
Listing of recorded Emax by entry.
Write the number in % without appending the unit.

INSERT INTO results (compound, readout_unit, quantitative_result) VALUES
  ('Cc1ccc(CC2(C(=O)O)CC2)cc1NC(=O)[C@H](c1ccc(Cl)cc1)[C@@H](C)C(F)(F)F [Example 33]', '%', 10);

// Emax lookup, key: C[C@H]([C@H](C(=O)Nc1cc(CC2(C(=O)O)CC2)ccc1F)c1ccc(C2CC2)cc1)C(F)(F)F [Example 40]
10

// Emax lookup, key: [2H]C([2H])([2H])OC(c1ccc(Cl)c(NC(=O)[C@H](c2ccc(Cl)cc2)[C@@H](C)C(F)(F)F)c1)C1(C(=O)O)CCC1 (single isomer, unassigned) [Example 105]
10

For the compound COc1cc([C@@H](C(=O)Nc2cc(CC3(C(=O)O)CC3)ccc2F)[C@@H](C)C(F)(F)F)ccc1Cl [Example 42] , what Emax is on record?
10

Which value of Emax has been reported for COc1cc([C@@H](C(=O)Nc2cc(CC3(C(=O)O)CC3)ccc2Cl)[C@@H](C)C(F)(F)F)ccc1Cl [Example 43] in the records?
10

---

# reported EC50; entries follow
- assayed_system: GAL4-PPARγ (Homo sapiens, UniProt P37231)
- Construct: PPARγ (amino acids 203-506)
- measurement_protocol: Cellular PPAR transactivation assay, GAL4-PPARγ chimera in CHO-K1 cells
- measurement_setup: CHO-K1 cells, luciferase reporter, 6 h stimulation

The following compounds have reported results that may help.
INSERT INTO results (compound, result) VALUES
  ('O=C(Nc1cc(CC2(C(=O)O)CC2)ccc1Cl)C(c1ccc(Cl)cc1)C1CCC(F)(F)C1 (single isomer, unassigned)', '> 10 µM'),
  ('CCOC(c1ccc(Cl)c(NC(=O)[C@H](c2ccc(Cl)cc2)[C@@H](C)C(F)(F)F)c1)C1(C(=O)O)CC1 (single isomer, unassigned)', '> 10 µM'),
  ('COc1ccc(CC2(C(=O)O)CC2)cc1CNC(=O)c1ccc(Cl)cc1Cl [Example 11 of EP 1 452 521-A1, reference compound]', '> 1 µM');

# query: EC50 | item C[C@H]([C@H](C(=O)Nc1cc(CC2(C(=O)O)CC2)ccc1Cl)c1ccc(C(C)(C)C(F)(F)F)cc1)C(F)(F)F | system: GAL4-PPARγ (Homo sapiens, UniProt P37231)
> 10 µM

---

- assayed_system: sGC (Rattus norvegicus, UniProt P20595)
- Construct: expressed in transfected cells; host or cells: CHO reporter cell
- measurement_protocol: Action at a recombinant guanylate cyclase reporter cell line (CHO reporter cell)
- Format: cell-based
- measurement_setup: CHO reporter cell in vitro
measured_parameter: MEC (minimum effective concentration), sGC-activating activity in the CHO reporter cell (nM)
API: value field is a number in nM; no unit string.

Examples from the recorded data:
INSERT INTO assay_data (compound, quantitative_result) VALUES
  ('C[C@H]([C@H](C(=O)Nc1cc(CC2(C(=O)O)CC2)ccc1F)c1ccc(C(C)(C)C)cc1)C(F)(F)F [Example 39]', 0.3),
  ('C[C@H]([C@H](C(=O)Nc1ccc(Cl)c(CC2(C(=O)O)CC2)c1F)c1ccc(Cl)cc1)C(F)(F)F [Example 28]', 3);

Return reported MEC (minimum effective concentration), sGC-activating activity in the CHO reporter cell; argument: O=C(Nc1cc(CC2(C(=O)O)CC2)ccc1Cl)C(c1ccc(Cl)cc1)C1CCC(F)(F)C1 (centres unmarked) [Example 35]
10

What value of MEC (minimum effective concentration), sGC-activating activity in the CHO reporter cell has been recorded for this entry: CC(C(C(=O)Nc1cccc(CC2(C(=O)O)CC2)c1)c1ccc(C(F)(F)F)cc1)C(F)(F)F (single isomer, unassigned) [Example 80]
3

Given the entry COc1cc([C@@H](C(=O)Nc2cc(CC3(C(=O)O)CC3)ccc2F)[C@@H](C)C(F)(F)F)ccc1Cl [Example 42] , report its measured MEC (minimum effective concentration), sGC-activating activity in the CHO reporter cell.
3

For Cc1ccc(CC2(C(=O)O)CC2)cc1NC(=O)[C@H](c1ccc(Cl)cc1)[C@@H](C)C(F)(F)F [Example 33] , what is its reported MEC (minimum effective concentration), sGC-activating activity in the CHO reporter cell?
3

Reported MEC (minimum effective concentration), sGC-activating activity in the CHO reporter cell, compound C[C@H]([C@H](C(=O)Nc1cc(C(C)(O)C2(C(=O)O)CC2)ccc1Cl)c1ccc(Cl)cc1)C(F)(F)F (some centres unmarked) [Example 111] : ____
30

Suppose we examine the compound O=C(Nc1cc(CC2(C(=O)O)CC2)ccc1F)C(c1ccc(Cl)cc1)C1CCCC1 (racemic) [Example 8] ; what MEC (minimum effective concentration), sGC-activating activity in the CHO reporter cell value has been reported?
3

I have this compound here, COc1cc([C@@H](C(=O)Nc2cc(CC3(C(=O)O)CC3)ccc2Cl)[C@@H](C)C(F)(F)F)ccc1Cl [Example 43] , and I need its recorded MEC (minimum effective concentration), sGC-activating activity in the CHO reporter cell.
3

Consider the compound shown here: O=C(Nc1cc(CC2(C(=O)O)CC2)ccc1F)[C@H](c1ccc(Cl)cc1)C1CCCC1(F)F (single isomer, unassigned; (+)) [Example 68] What is its recorded MEC (minimum effective concentration), sGC-activating activity in the CHO reporter cell?
1

---

- assayed_system: sGC (Rattus norvegicus, UniProt P20595)
- Construct: expressed in transfected cells; host or cells: CHO reporter cell
- measurement_protocol: Action at a recombinant guanylate cyclase reporter cell line (CHO reporter cell)
- Assay type: cell-based
- measurement_setup: CHO reporter cell in vitro
Listing of entries alongside the reported MEC (minimum effective concentration), sGC-activating activity in the CHO reporter cell.
Answer format: numeric, nM implied, no suffix.

Completed entries (count: 6):
INSERT INTO measurements (compound, readout_unit, quantitative_result) VALUES
  ('O=C(Nc1cc(CC2(C(=O)O)CC2)ccc1F)C(c1ccc(Cl)cc1)C1CCC(F)(F)C1 (single isomer, unassigned) [Example 78]', 'nM', 3),
  ('Cc1cc(C(C(=O)Nc2cccc(CC3(C(=O)O)CC3)c2)C(C)C(F)(F)F)ccc1Cl (stereo not shown)', 'nM', 30),
  ('C[C@H]([C@H](C(=O)Nc1cc(CC2(C(=O)O)CC2)ccc1F)c1ccc(F)cc1)C(F)(F)F', 'nM', 10),
  ('O=C(Nc1cc(CC2(C(=O)O)CC2)ccc1F)C(c1ccc(Cl)cc1)C1CCC(F)(F)C1 (stereo not shown) [Example 34]', 'nM', 10),
  ('[2H]C([2H])([2H])OC(c1ccc(Cl)c(NC(=O)[C@H](c2ccc(Cl)cc2)[C@@H](C)C(F)(F)F)c1)C1(C(=O)O)CC1 (single isomer, unassigned; (+))', 'nM', 1),
  ('O=C(Nc1cc(CC2(C(=O)O)CC2)ccc1F)[C@H](c1ccc(Cl)cc1)C1CCCC1 (single isomer, unassigned)', 'nM', 1);

Kindly review the next compound as well.
Need MEC (minimum effective concentration), sGC-activating activity in the CHO reporter cell, item O=C(Nc1cc(CC2(C(=O)O)CC2)ccc1F)[C@H](c1ccc(Cl)cc1)C1CCCC1(F)F (single isomer, unassigned; (+)) [Example 67]
3
